# Test Details: Individual predicted steady‐state exposures
# Format: in vivo, human
# Cond: human, plasma, C max,ss geometric mean (CV), Asian population: Japan
Catalogue of Cmax readings, one per entry.
Measurement Type: Cmax (µg/mL)

NC(=O)[C@@H]1CC[C@@H]2CN1C(=O)N2OS(=O)(=O)O :: 16.1
CC(C)(O/N=C(\C(=O)N[C@@H]1C(=O)N2C(C(=O)[O-])=C(C[n+]3ccccc3)CS[C@H]12)c1csc(N)n1)C(=O)O :: 90.4

###

# Test Details: Individual predicted steady‐state exposures
# Format: in vivo, human
# Cond: human, plasma, C max,ss geometric mean (CV), Fever at baseline: Yes
Catalogue of Cmax readings, one per entry.
Measurement Type: Cmax (ng/mL)

CC(C)(O/N=C(\C(=O)N[C@@H]1C(=O)N2C(C(=O)[O-])=C(C[n+]3ccccc3)CS[C@H]12)c1csc(N)n1)C(=O)O [Ceftazidime, ceftazidime] :: 72100
NC(=O)[C@@H]1CC[C@@H]2CN1C(=O)N2OS(=O)(=O)O [Avibactam, avibactam] :: 12200

Values were extracted from paper PMC6440567.
